system: 134 cancer cell lines; assay: Cell viability assay (ATPlite, 72 hours), IC50 on cancer cell line panel; conditions: Homo sapiens, KLE, read-out: IC50 in cell proliferation assay
The compounds listed here are annotated with their IC50.

Field: example entries. Status: answers known.
{"compoundStructureString": "CNC(=O)c1ccc(-c2cnc3ncc(Cc4ccc5ncccc5c4)n3n2)cc1F", "IC50": "> 31.6 µM"}
{"compoundStructureString": "CCn1c(=O)c(-c2cc(NC(=O)Nc3ccccc3)c(F)cc2Br)cc2cnc(NC)cc21", "IC50": "9.98 µM"}

Let us move to another entry and its IC50.
The recorded IC50 for `CC#CC(=O)N1CCC[C@H]1c1nc(-c2ccc(C(=O)Nc3ccccn3)cc2)c2c(N)nccn12` is > 31.6 µM

----------
biological target: panel of 255 wild-type kinases (Homo sapiens); assay: Kinase panel profiling at 1 µmol/L (MSA or IMAP), percentage inhibition; format: biochemical; settings: AKT2 kinase assay; 1 µmol/L single concentration; read-out: %-inhibition AKT2
recordedEndpoint: inhibition at 1 µM (%)
Respond numerically; units are % and should not be typed.

Below, each entry is followed by its recorded inhibition at 1 µM result.
{"compoundStructureString": "CCc1nc(C(N)=O)c(Nc2ccc(N3CCC(N4CCN(C)CC4)CC3)c(OC)c2)nc1NC1CCOCC1", "inhibition at 1 µM, %": -4.73}
{"compoundStructureString": "COC(=O)N[C@@H](C)CNc1nccc(-c2cn(C(C)C)nc2-c2cc(Cl)cc(NS(C)(=O)=O)c2F)n1", "inhibition at 1 µM, %": 2}
{"compoundStructureString": "CN1CCN(c2ccc(C(=O)Nc3n[nH]c4ccc(Cc5cc(F)cc(F)c5)cc34)c(NC3CCOCC3)c2)CC1", "inhibition at 1 µM, %": -3.69}
{"compoundStructureString": "CCN1CCN(c2ccc(Nc3cc(N(C)C(=O)Nc4c(Cl)c(OC)cc(OC)c4Cl)ncn3)cc2)CC1", "inhibition at 1 µM, %": -0.769}
{"compoundStructureString": "C[C@H](Nc1ncnc2nc[nH]c12)c1cc2cccc(Cl)c2c(=O)n1-c1ccccc1", "inhibition at 1 µM, %": -0.908}
{"compoundStructureString": "CCN1C(=O)N(c2c(F)c(OC)cc(OC)c2F)Cc2cnc3[nH]c(CN4CCOCC4)cc3c21", "inhibition at 1 µM, %": -2.2}

// inhibition at 1 µM lookup, compound = `CCn1c(=O)c(-c2cc(NC(=O)Nc3ccccc3)c(F)cc2Br)cc2cnc(NC)cc21` , result: -5

----------
molecular target: panel of 255 wild-type kinases (Homo sapiens, UniProt Q9Y2H1); assay: Kinase panel profiling at 1 µmol/L (MSA or IMAP), percentage inhibition; format: biochemical; conditions: NDR2; 1 µmol/L single concentration; read-out: %-inhibition, NDR2
Sequence (Q9Y2H1 whole entry): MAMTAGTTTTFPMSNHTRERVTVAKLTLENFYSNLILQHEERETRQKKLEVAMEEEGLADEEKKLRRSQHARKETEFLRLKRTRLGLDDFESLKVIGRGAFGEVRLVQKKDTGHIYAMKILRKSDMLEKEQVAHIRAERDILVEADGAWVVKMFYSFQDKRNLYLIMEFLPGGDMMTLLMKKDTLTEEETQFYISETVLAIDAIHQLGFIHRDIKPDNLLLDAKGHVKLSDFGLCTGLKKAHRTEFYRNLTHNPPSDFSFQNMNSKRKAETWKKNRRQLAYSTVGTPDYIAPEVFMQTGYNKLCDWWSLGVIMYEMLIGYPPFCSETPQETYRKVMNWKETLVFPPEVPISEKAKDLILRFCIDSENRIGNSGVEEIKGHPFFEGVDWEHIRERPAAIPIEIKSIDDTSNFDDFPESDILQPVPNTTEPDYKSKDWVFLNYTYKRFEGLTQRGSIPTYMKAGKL
Each record here notes measured inhibition at 1 µM.
Just the number in %, nothing appended.

Recorded results for 7 compounds are shown here.
{"compoundStructureString": "C[C@H](Nc1ncnc2nc[nH]c12)c1cc2cccc(Cl)c2c(=O)n1-c1ccccc1", "inhibition at 1 µM (%)": -0.151}
{"compoundStructureString": "Cn1cnc2c(F)c(Nc3ccc(Br)cc3F)c(C(=O)NOCCO)cc21", "inhibition at 1 µM (%)": -1.45}
{"compoundStructureString": "COC(=O)N[C@@H](C)CNc1nccc(-c2cn(C(C)C)nc2-c2cc(Cl)cc(NS(C)(=O)=O)c2F)n1", "inhibition at 1 µM (%)": 5}
{"compoundStructureString": "COc1ccc(CN2C3CC2CN(c2ccc(-c4cc(OCC(C)(C)O)cn5ncc(C#N)c45)cn2)C3)cn1", "inhibition at 1 µM (%)": -4.53}
{"compoundStructureString": "O=C(Nc1cnn2ccc(N3CCC[C@@H]3c3cc(F)ccc3F)nc12)N1CC[C@H](O)C1", "inhibition at 1 µM (%)": -4.33}
{"compoundStructureString": "CCN1C(=O)N(c2c(F)c(OC)cc(OC)c2F)Cc2cnc3[nH]c(CN4CCOCC4)cc3c21", "inhibition at 1 µM (%)": -1.83}
{"compoundStructureString": "C=CC(=O)N1CCC([C@@H]2CCNc3c(C(N)=O)c(-c4ccc(Oc5ccccc5)cc4)nn32)CC1", "inhibition at 1 µM (%)": 0.505}

Let us move to another entry and its inhibition at 1 µM.
Sample `COc1cc2ncnc(Nc3ccc(F)c(Cl)c3)c2cc1NC(=O)/C=C/CN1CCCCC1` ; inhibition at 1 µM observed: -1.58
